Test system: rat cytochrome P450 3A
Conditions: oil ingredient 0.001 wt. %; from solvent baseline
resultType: % inhibition of cyclosporine metabolism, 0.001% (Table 2) (%)

- compound: "CC1(C)[C@H]2CC[C@](C)(C2)[C@H]1O [Fenchol-(1R)-endo-(+)]"
  quantitativeResult: 74
- compound: "CC(C)=CCC/C(C)=C/C=O"
  quantitativeResult: 54
- compound: "CC/C=C\\CC1=C(C)CCC1=O [Jasmone, cis-]"
  quantitativeResult: 68
- compound: "CCOC(=O)/C=C/c1ccccc1 [Ethyl Cinnamate, trans-, Ethyl 3-phenylpropenoic acid]"
  quantitativeResult: -16
